Reference source for all entries: ChEMBL document CHEMBL2069212

system: Rattus norvegicus; experiment: Antiobesity activity in Sprague-Dawley rat assessed as reduction of food intake at 3 mg/kg, sc qd measured after 24 to 48 hrs relative to control; assay type: functional; conditions: route subcutaneous
Please provide measured Food intake relative to control for the entries that follow.

Please review the following examples before continuing.
CCCC[C@H](NC(=O)[C@H](CCC(=O)O)NC(=O)[C@H](CCCNC(=N)N)NC(=O)[C@H](CCC(=O)O)NC(=O)[C@H](CCC(=O)O)NC(=O)CNC(=O)COCCOCCNC(=O)CCCCCCCCCCCCCCCc1nnn[nH]1)C(=O)N[C@H]1CCC(=O)NCCCC[C@@H](C(N)=O)NC(=O)[C@H](Cc2c[nH]c3ccccc23)NC(=O)[C@H](CCCNC(=N)N)NC(=O)[C@@H](Cc2ccccc2)NC(=O)[C@@H]2C[C@@H](O)CN2C1=O = 98%
CCCCCCCCCCCCCCCC(=O)NS(=O)(=O)CCCC(=O)NCC(=O)N[C@@H](CO)C(=O)N[C@@H](CCC(N)=O)C(=O)N[C@@H](Cc1cnc[nH]1)C(=O)N[C@@H](CO)C(=O)N[C@@H](CCCC)C(=O)N[C@H]1CCC(=O)NCCCC[C@@H](C(N)=O)NC(=O)[C@H](Cc2c[nH]c3ccccc23)NC(=O)[C@H](CCCNC(=N)N)NC(=O)[C@@H](Cc2ccccc2)NC(=O)[C@@H]2C[C@@H](O)CN2C1=O = 58%

Give Food intake relative to control for each listed item.
1. CCCC[C@H](NC(=O)[C@H](CCCNC(=N)N)NC(=O)[C@H](Cc1cnc[nH]1)NC(=O)[C@H](CCC(N)=O)NC(=O)[C@H](CO)NC(=O)CNC(=O)COCCOCCNC(=O)CCCCCCCCCCCCCCCc1nnn[nH]1)C(=O)N[C@H]1CCC(=O)NCCCC[C@@H](C(N)=O)NC(=O)[C@H](Cc2c[nH]c3ccccc23)NC(=O)[C@H](CCCNC(=N)N)NC(=O)[C@@H](Cc2ccccc2)NC(=O)[C@@H]2C[C@@H](O)CN2C1=O
2. CCCC[C@H](NC(=O)[C@H](CNC(C)C)NC(=O)[C@H](Cc1cnc[nH]1)NC(=O)[C@H](CCC(N)=O)NC(=O)[C@H](CO)NC(=O)CNC(=O)COCCOCCNC(=O)CCCCCCCCCCCCCCCc1nnn[nH]1)C(=O)N[C@H]1CCC(=O)NCCCC[C@@H](C(N)=O)NC(=O)[C@H](Cc2c[nH]c3ccccc23)NC(=O)[C@H](CCCNC(=N)N)NC(=O)[C@@H](Cc2ccccc2)NC(=O)[C@@H]2C[C@@H](O)CN2C1=O
3. CCCCCCCCCCCCCCCC(=O)NCC(=O)N[C@@H](CO)C(=O)N[C@@H](CCC(N)=O)C(=O)N[C@@H](CCCCNC(=N)N)C(=O)N[C@@H](CO)C(=O)N[C@@H](CCCC)C(=O)N[C@H]1CCC(=O)NCCCC[C@@H](C(N)=O)NC(=O)[C@H](Cc2c[nH]c3ccccc23)NC(=O)[C@H](CCCNC(=N)N)NC(=O)[C@@H](Cc2ccccc2)NC(=O)[C@@H]2C[C@@H](O)CN2C1=O
4. CCCC[C@H](NC(=O)[C@H](CN)NC(=O)[C@H](Cc1cnc[nH]1)NC(=O)[C@H](CCC(N)=O)NC(=O)[C@H](CO)NC(=O)CNC(=O)COCCOCCNC(=O)CCCCCCCCCCCCCCCc1nnn[nH]1)C(=O)N[C@H]1CCC(=O)NCCCC[C@@H](C(N)=O)NC(=O)[C@H](Cc2c[nH]c3ccccc23)NC(=O)[C@H](CCCNC(=N)N)NC(=O)[C@@H](Cc2ccccc2)NC(=O)[C@@H]2C[C@@H](O)CN2C1=O
5. CCCC[C@H](NC(=O)[C@H](CCC(=O)O)NC(=O)[C@H](Cc1c[nH]cn1)NC(=O)[C@H](CCC(=O)O)NC(=O)[C@H](CCC(=O)O)NC(=O)CNC(=O)COCCOCCNC(=O)CCCCCCCCCCCCCCCc1nnn[nH]1)C(=O)N[C@H]1CCC(=O)NCCCC[C@@H](C(N)=O)NC(=O)[C@H](Cc2c[nH]c3ccccc23)NC(=O)[C@H](CCCNC(=N)N)NC(=O)[C@@H](Cc2ccccc2)NC(=O)[C@@H]2C[C@@H](O)CN2C1=O
6. CCCC[C@H](NC(=O)[C@H](CNC(=O)CN(CC(=O)O)CC(=O)O)NC(=O)[C@H](Cc1cnc[nH]1)NC(=O)[C@H](CCC(N)=O)NC(=O)[C@H](CO)NC(=O)CNC(=O)COCCOCCNC(=O)CCCCCCCCCCCCCCCc1nnn[nH]1)C(=O)N[C@H]1CCC(=O)NCCCC[C@@H](C(N)=O)NC(=O)[C@H](Cc2c[nH]c3ccccc23)NC(=O)[C@H](CCCNC(=N)N)NC(=O)[C@@H](Cc2ccccc2)NC(=O)[C@@H]2C[C@@H](O)CN2C1=O
7. CCCC[C@H](NC(C)=O)C(=O)N[C@H]1CC(=O)NCCCC[C@@H](C(=O)O)NC(=O)[C@H](Cc2c[nH]c3ccccc23)NC(=O)[C@H](CCCNC(=N)N)NC(=O)[C@@H](Cc2ccccc2)NC(=O)[C@H](Cc2c[nH]cn2)NC1=O [BREMELANOTIDE]

83%
72%
82%
73%
88%
66%
100%

Tell me its Food intake relative to control given CCCC[C@H](NC(=O)[C@@H](N)CNC(=O)[C@H](Cc1cnc[nH]1)NC(=O)[C@H](CCC(N)=O)NC(=O)[C@H](CO)NC(=O)CNC(=O)COCCOCCNC(=O)CCCCCCCCCCCCCCCc1nnn[nH]1)C(=O)N[C@H]1CCC(=O)NCCCC[C@@H](C(N)=O)NC(=O)[C@H](Cc2c[nH]c3ccccc23)NC(=O)[C@H](CCCNC(=N)N)NC(=O)[C@@H](Cc2ccccc2)NC(=O)[C@@H]2C[C@@H](O)CN2C1=O as the entry.
81%
